src = patent US20220298138A1

# tested target: Human Factor XIIa (Homo sapiens, UniProt P00748)
# Construct: purchased Enzyme Research Laboratories
# Sequence (P00748 373-615 limits assumed): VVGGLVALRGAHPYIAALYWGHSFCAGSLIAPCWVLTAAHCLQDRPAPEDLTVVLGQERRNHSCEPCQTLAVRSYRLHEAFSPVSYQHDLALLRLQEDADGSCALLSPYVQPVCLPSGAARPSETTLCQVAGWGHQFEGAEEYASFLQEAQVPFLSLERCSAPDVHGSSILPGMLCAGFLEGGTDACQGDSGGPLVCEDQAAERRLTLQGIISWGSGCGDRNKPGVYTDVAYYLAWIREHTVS
# protocol details: Factor XIIa inhibitory activity in vitro (fluorogenic substrate H-DPro-Phe-Arg-AFC)
# Assay type: biochemical
# measurement setup: 25° C., class symbols, read-out: Human FXIIa IC50
measurement type: IC50

Illustrative cases are given below, each with its answer.
> print(dat)
                                   compound                             tested.target  measurement.type        result
1  CC(C)c1cc(C(=O)N[C@@H](Cc2ccc(F)c(F)c2)C(=O)NCc2ccc3c(N)nccc3c2)[nH]n1  Human Factor XIIa (Homo sapiens, UniProt P00748)              IC50    3 to 10 µM
2  Nc1nccc2cc(CNC(=O)[C@H](Cc3ccc(F)c(F)c3)NC(=O)C3CCC(O)CC3)ccc12 (some centres unmarked)  Human Factor XIIa (Homo sapiens, UniProt P00748)              IC50   10 to 40 µM
3  Nc1nccc2cc(CNC(=O)[C@H](Cc3ccc(F)c(F)c3)NC(=O)CCCCCN3CCCCC3)ccc12  Human Factor XIIa (Homo sapiens, UniProt P00748)              IC50  0.28 to 1 µM

response.value for "CN1CCN(CC(=O)N[C@@H](Cc2ccc(F)c(F)c2)C(=O)NCc2ccc3c(N)nccc3c2)CC1" (field: IC50) = 10 to 40 µM

# compound "Nc1nccc2cc(CNC(=O)[C@H](Cc3ccc(F)c(F)c3)NC(=O)c3nc4ccccc4[nH]c3=O)ccc12" ; its IC50 = 10 to 40 µM

# IC50 (compound: "CC(C)N1CCCC[C@@H]1C(=O)N[C@@H](Cc1ccc(F)c(F)c1)C(=O)NCc1ccc2c(N)nccc2c1" ) is 0.1 to 0.279 µM

For "CC(C)c1cc(C(=O)N[C@@H](Cc2ccc(F)c(F)c2)C(=O)NCc2ccc3c(N)nccc3c2)cnn1" the compound record lists IC50 as 1 to 3 µM

Quick note, IC50 for "CC(C)(C)OC(=O)N[C@H](CCc1ccccc1)C(=O)N1CCC[C@H]1C(=O)NCc1ccc2c(N)nccc2c1" landed at 3 to 10 µM

Measured IC50 of Nc1nccc2cc(CNC(=O)C3CC4CCC3N(C(=O)[C@H](N)CCc3ccccc3)C4)ccc12 (some centres unmarked) : 3 to 10 µM

The compound "CC(C)N[C@H](CCCCN1CCCCC1)C(=O)N[C@@H](C)C(=O)NCc1ccc2c(N)nccc2c1" showed IC50 equal to 0.28 to 1 µM

# IC50 of "C[C@@H]1CCC[C@H](C)N1CC(=O)N[C@@H](Cc1ccc(Cl)cc1)C(=O)NCc1ccc2c(N)nccc2c1" = 3 to 10 µM

Entry "COc1ccc(CNC(=O)[C@H](Cc2ccc(F)c(F)c2)NC(=O)CN2[C@H](C)CCC[C@@H]2C)cc1Cl" — recorded IC50 = 10 to 40 µM

The compound identified as "C[C@@H]1CCC[C@H](C)N1CC(=O)N[C@H](Cc1ccc(F)c(F)c1)C(=O)NCc1ccc2c(N)nccc2c1" registered its IC50 at 1 to 3 µM

# compound "Nc1nccc2cc(CNC(=O)[C@H](Cc3ccc(F)c(F)c3)NC(=O)CCc3nnc(-c4ccccc4)o3)ccc12" ; its IC50 = 10 to 40 µM

====

# tested target: Human Factor XIIa (Homo sapiens, UniProt P00748)
# Construct: purchased Enzyme Research Laboratories
# protocol details: Factor XIIa inhibitory activity in vitro (fluorogenic substrate H-DPro-Phe-Arg-AFC)
# Format: biochemical
# measurement setup: 25° C., class symbols, read-out: Human FXIIa IC50
Entries and their IC50 values follow.

> print(dat)
                                   molecule  measurement.type      result
1  CNS(=O)(=O)c1cccc(C(=O)N[C@@H](Cc2ccc(F)c(F)c2)C(=O)NCc2ccc3c(N)nccc3c2)c1 [Example 0.60]              IC50  3 to 10 µM

The recorded IC50 with Human Factor XIIa (Homo sapiens, UniProt P00748) for C[C@@H]1CCC[C@H](C)N1CC(=O)N1CCC[C@@H](C(=O)NCc2ccc3c(N)nccc3c2)C1 [Example 32.08] was 1 to 3 µM

Entry CC(C)[C@H](N)C(=O)N[C@H](CC1CCCC2CCCCC21)C(=O)NCc1ccc(C(=N)N)s1 (stereo partly drawn) [Example 71.04] : IC50 on Human Factor XIIa (Homo sapiens, UniProt P00748) = 1 to 3 µM

====

# tested target: Human Factor XIIa (Homo sapiens)
# Construct: purchased Enzyme Research Laboratories
# protocol details: Factor XIIa inhibitory activity in vitro (fluorogenic substrate H-DPro-Phe-Arg-AFC)
# Assay type: biochemical
# measurement setup: 25° C., class symbols, read-out: Human FXIIa IC50
pIC50: −log10 of the molar value.
measurement type: pIC50

In plain terms, Nc1nccc2cc(CNC(=O)[C@H](Cc3ccc(F)c(F)c3)NC(=O)C3=CCC(=O)NN3)ccc12 [Example 0.44] has a documented pIC50 of 5.00 to 5.52

====

# tested target: Human Factor XIIa (Homo sapiens)
# Construct: purchased Enzyme Research Laboratories
# protocol details: Factor XIIa inhibitory activity in vitro (fluorogenic substrate H-DPro-Phe-Arg-AFC)
# Assay type: biochemical
# measurement setup: 25° C., class symbols, read-out: Human FXIIa IC50
Listed next: entries and their corresponding IC50.

Solved cases (3 shown):
> print(dat)
                                   compound       result
1  Nc1nccc2cc(CNC(=O)[C@@H](N)Cc3csc4ccccc34)ccc12  10 to 40 µM
2  CC(C)N[C@H](COc1ccccc1)C(=O)N1CCC1C(=O)NCc1ccc2[nH]cc(Cl)c2c1 (stereo partly shown)  10 to 40 µM
3  C[C@@H]1CCC[C@H](C)N1CC(=O)NCC(=O)NCc1ccc2c(N)nccc2c1  10 to 40 µM

Entry under test: "CC(C)(NS(=O)(=O)c1ccc2ccccc2c1)C(=O)NCc1ccc2c(N)nccc2c1" . Its IC50 was 10 to 40 µM

Memo: "Nc1nccc2cc(CNC(=O)[C@H](Cc3ccc(F)c(F)c3)NC(=O)c3ccc4ncccc4n3)ccc12" , reported IC50: 10 to 40 µM

Briefly, IC50 measured for "Nc1nccc2cc(CNC(=O)CNC(=O)[C@@H](CCc3ccccc3)NS(=O)(=O)Cc3ccccc3)ccc12" : 1 to 3 µM

The reported IC50 of the compound "CC(C)c1cc(C(=O)N[C@@H](Cc2ccc(F)c(F)c2)C(=O)NCc2ccc3c(N)nccc3c2)no1" was 3 to 10 µM

====

IC50 for assorted compounds
# tested target: Human Factor XIIa (Homo sapiens)
# Construct: purchased Enzyme Research Laboratories
# protocol details: Factor XIIa inhibitory activity in vitro (fluorogenic substrate H-DPro-Phe-Arg-AFC)
# Assay type: biochemical
# measurement setup: 25° C., numeric bound instead of class symbol, read-out: Human FXIIa IC50

The recorded IC50 for Cc1ccnn1-c1ccc(C(=O)N[C@@H](Cc2ccc(F)c(F)c2)C(=O)NCc2ccc3c(N)nccc3c2)cc1 [Example 0.83] is > 12.7 µM

IC50 reading for Cc1nc(C(F)(F)F)ccc1C(=O)N[C@@H](Cc1ccc(F)c(F)c1)C(=O)NCc1ccc2c(N)nccc2c1 [Example 0.63] : > 12.7 µM

====

# tested target: Human Factor XIIa (Homo sapiens, UniProt P00748)
# Construct: purchased Enzyme Research Laboratories
# protocol details: Factor XIIa inhibitory activity in vitro (fluorogenic substrate H-DPro-Phe-Arg-AFC)
# Type: biochemical
# measurement setup: 25° C., class symbols, read-out: Human FXIIa IC50
measurement type: IC50

Observe how each entry below is paired with its result.
> print(dat)
                                   compound  measurement.type           result
1  CC(C)N[C@H](CCc1ccccc1)C(=O)N1CC[C@H]1C(=O)NCc1cnc2[nH]cc(Cl)c2c1 [Example 27.08]              IC50     0.28 to 1 µM
2  CC(C)N[C@H](CCc1ccccc1)C(=O)N[C@@H](C)C(=O)NCCc1ccnc(N)c1 [Example 9.12]              IC50      10 to 40 µM
3  CC(C)N[C@H](CCCCN1CCOCC1)C(=O)N1CC[C@H]1C(=O)NCc1ccc2[nH]cc(Cl)c2c1 [Example 10.20]              IC50     0.28 to 1 µM
4  CC(C)N[C@H](CCCCN1CCCCC1)C(=O)N1CCC[C@H]1C(=O)NCc1cnc2[nH]cc(Cl)c2c1 [Example 27.02]              IC50  0.1 to 0.279 µM

Record CC(C)N[C@H](Cc1c[nH]c2ccccc12)C(=O)N1CC[C@H]1C(=O)NCc1ccc2[nH]cc(Cl)c2c1 [Example 10.18] , field IC50: 10 to 40 µM

Reported IC50 of Cc1nocc1C(=O)N[C@@H](Cc1ccc(F)c(F)c1)C(=O)NCc1ccc2c(N)nccc2c1 [Example 0.21] : 3 to 10 µM

Short answer for Nc1nccc2cc(CNC(=O)[C@H](Cc3ccc(F)c(F)c3)NC(=O)c3cccc(N4CCCC4=O)c3)ccc12 [Example 0.81] : IC50 was 3 to 10 µM
